system: PEX405 cells; assay type: cell-based; conditions: 10 µM, 3 days, PI positive cells (dead cells)
Measured % PI+ cells of individual entries

[
  {
    "compound": "Nc1[nH]c(=O)nc2c1ncn2[C@@H]1O[C@H](CO)[C@@H](O)[C@H]1O [Crotonoside]",
    "study system": "PEX405 cells",
    "% PI+ cells [%]": 1
  },
  {
    "compound": "O=C(NO)c1ccc(CN2CCCc3cc(Cl)ccc32)cc1 [SW-100]",
    "study system": "PEX405 cells",
    "% PI+ cells [%]": 2
  },
  {
    "compound": "O=C(CCCCCCC(=O)Nc1cccnc1)NO [Pyroxamide]",
    "study system": "PEX405 cells",
    "% PI+ cells [%]": 1
  },
  {
    "compound": "O=C(c1ccc(Cl)cc1Cl)n1nnc2ccccc21 [ITSA-1]",
    "study system": "PEX405 cells",
    "% PI+ cells [%]": 0
  },
  {
    "compound": "CN1CCc2c(c3ccccc3n2Cc2ccc(C(=O)NO)cc2)C1 [Tubastatin A]",
    "study system": "PEX405 cells",
    "% PI+ cells [%]": 1
  },
  {
    "compound": "Cc1cc(Cl)ccc1OCCCC(=O)NO [Droxinostat]",
    "study system": "PEX405 cells",
    "% PI+ cells [%]": 2
  },
  {
    "compound": "CC(=O)Nc1ccc(C(=O)Nc2cc(-c3cccs3)ccc2N)cc1 [BRD-6929]",
    "study system": "PEX405 cells",
    "% PI+ cells [%]": 1
  },
  {
    "compound": "O=C(NO)c1cnc(NC2(c3ccccc3)CC2)nc1 [ACY-738]",
    "study system": "PEX405 cells",
    "% PI+ cells [%]": 1
  },
  {
    "compound": "CCOC(=O)c1cnc(NC2(c3ccccc3)CC2)nc1 [CG347B]",
    "study system": "PEX405 cells",
    "% PI+ cells [%]": 0
  },
  {
    "compound": "CCN1CCN(C(c2cccnc2)c2cc(Cl)c3cccnc3c2O)CC1 (stereo not shown) [BRD 4354]",
    "study system": "PEX405 cells",
    "% PI+ cells [%]": 3
  }
]

---

The following molecules are shown together with reported % PI+ cells values.
tested on: PEX405 cells; type: cell-based; conditions: 10 µM, 3 days, PI positive cells (dead cells)

[
  {
    "molecule": "CC(=O)N[C@@H](CCCCN)C(=O)Nc1ccc2c(C)cc(=O)oc2c1",
    "study system": "PEX405 cells",
    "% PI+ cells / %": 0
  },
  {
    "molecule": "CC(=O)Nc1ccc(C(=O)Nc2ccc(F)cc2N)cc1",
    "study system": "PEX405 cells",
    "% PI+ cells / %": 1
  },
  {
    "molecule": "O=C(NO)c1cnc(NC2(c3cccc(F)c3)CCCCC2)nc1",
    "study system": "PEX405 cells",
    "% PI+ cells / %": 1
  },
  {
    "molecule": "CC(C)(C)c1ccc(C(=O)Nc2ccc(C(=O)NO)cc2)cc1",
    "study system": "PEX405 cells",
    "% PI+ cells / %": 1
  },
  {
    "molecule": "CCOC(=O)NCCCC(=O)NCCc1ccccc1 [Santacruzamate A]",
    "study system": "PEX405 cells",
    "% PI+ cells / %": 1
  },
  {
    "molecule": "O=C(NO)c1cccc(C(=O)NCCc2ccccc2)c1",
    "study system": "PEX405 cells",
    "% PI+ cells / %": 1
  },
  {
    "molecule": "O=C(CCCCCCNC(=O)c1cnc(N(c2ccccc2)c2ccccc2)nc1)NO",
    "study system": "PEX405 cells",
    "% PI+ cells / %": 1
  },
  {
    "molecule": "CC(C)(C)OC(=O)Nc1ccc(-c2cc(C(=O)NCCCCCCC(=O)NO)no2)cc1",
    "study system": "PEX405 cells",
    "% PI+ cells / %": 35
  },
  {
    "molecule": "COC(=O)c1ccc(OC(=O)CCCCCCC(=O)NO)cc1",
    "study system": "PEX405 cells",
    "% PI+ cells / %": 1
  }
]

---

Attribute: % Importing cells
test system: PEX405 cells; experiment: Catalase import immunofluorescence, high-content screening (% importing cells); type: cell-based, human; conditions: PEX405 cells, 1.3 µM, 3 days

[
  {
    "molecule": "Nc1ccc(-c2cccs2)cc1NC(=O)c1ccc2nc(N3CCNCC3)ccc2c1",
    "study system": "PEX405 cells",
    "% Importing cells": "16%"
  },
  {
    "molecule": "Cn1cc(CNCC2CCN(c3ncc(C(=O)NO)cn3)CC2)c2ccccc21",
    "study system": "PEX405 cells",
    "% Importing cells": "40%"
  },
  {
    "molecule": "CCCCc1nc2cc(/C=C/C(=O)NO)ccc2n1CCN(CC)CC",
    "study system": "PEX405 cells",
    "% Importing cells": "52%"
  },
  {
    "molecule": "CCCCN(Cc1ccc(C(=O)NO)cc1)C(=O)Nc1ccccc1",
    "study system": "PEX405 cells",
    "% Importing cells": "8%"
  },
  {
    "molecule": "O=C(CCCCCCC(=O)NO)NO [Suberoyl bis-hydroxamic acid]",
    "study system": "PEX405 cells",
    "% Importing cells": "4%"
  }
]

---

tested on: GM16513 cells; type: cell-based; settings: 1.3 µM, 3 days, PI positive cells (dead cells)
Reported values of % PI+ cells for individual entries

[
  {
    "compound": "Nc1[nH]c(=O)nc2c1ncn2[C@@H]1O[C@H](CO)[C@@H](O)[C@H]1O [Crotonoside]",
    "study system": "GM16513 cells",
    "output unit": "%",
    "% PI+ cells": 1
  },
  {
    "compound": "CN1CCc2c(c3ccccc3n2Cc2ccc(C(=O)NO)cc2)C1.Cl [Tubastatin A (Hydrochloride), Tubastatin A]",
    "study system": "GM16513 cells",
    "output unit": "%",
    "% PI+ cells": 2
  },
  {
    "compound": "O=C(NO)c1ccc(CN2CCCc3cc(Cl)ccc32)cc1",
    "study system": "GM16513 cells",
    "output unit": "%",
    "% PI+ cells": 1
  },
  {
    "compound": "Oc1cc(O)cc(/C=C/c2c(O)cccc2O)c1",
    "study system": "GM16513 cells",
    "output unit": "%",
    "% PI+ cells": 1
  },
  {
    "compound": "O=C(NO)c1cccc(C(=O)NCCc2ccccc2)c1",
    "study system": "GM16513 cells",
    "output unit": "%",
    "% PI+ cells": 1
  },
  {
    "compound": "O=C1CCc2c(ccc3ccccc23)O1",
    "study system": "GM16513 cells",
    "output unit": "%",
    "% PI+ cells": 1
  },
  {
    "compound": "O=C(NO)c1ccc(CC(=O)N(CCO)c2ccccc2)cc1",
    "study system": "GM16513 cells",
    "output unit": "%",
    "% PI+ cells": 1
  },
  {
    "compound": "Cc1cc(Cl)ccc1OCCCC(=O)NO",
    "study system": "GM16513 cells",
    "output unit": "%",
    "% PI+ cells": 1
  },
  {
    "compound": "CC(C)(CNC(=O)c1cccc(-c2noc(C(F)(F)F)n2)c1)c1coc(-c2ccccc2)n1",
    "study system": "GM16513 cells",
    "output unit": "%",
    "% PI+ cells": 1
  },
  {
    "compound": "COc1cccc2c1c(O)c(C(=O)N(C)c1ccc(C(F)(F)F)cc1)c(=O)n2C",
    "study system": "GM16513 cells",
    "output unit": "%",
    "% PI+ cells": 1
  },
  {
    "compound": "O=C(NO)c1cnc(NC2(c3cccc(F)c3)CCCCC2)nc1",
    "study system": "GM16513 cells",
    "output unit": "%",
    "% PI+ cells": 2
  }
]

---

# key: entry, value: % PI+ cells
system: GM16513 cells; assay type: cell-based; details: 1.3 µM, 3 days, PI positive cells (dead cells)
Counter-ions that a name gives are not always drawn.

[
  {
    "compound": "Nc1ccccc1NC(=O)c1ccc(CCCC(=O)Nc2ccc([C@@H]3C[C@H]3N)cc2)cc1 [Corin]",
    "study system": "GM16513 cells",
    "% PI+ cells": "5%"
  },
  {
    "compound": "O=C(NCC1(c2nc(-c3ccccc3)cs2)CCOCC1)c1cccc(-c2noc(C(F)(F)F)n2)c1 [TMP269]",
    "study system": "GM16513 cells",
    "% PI+ cells": "1%"
  },
  {
    "compound": "Nc1cc(F)ccc1NC(=O)/C=C/c1cnn(C/C=C/c2ccccc2)c1 [RGFP966]",
    "study system": "GM16513 cells",
    "% PI+ cells": "1%"
  },
  {
    "compound": "Nc1ccc(-c2cccs2)cc1NC(=O)c1ccc2nc(N3CCNCC3)ccc2c1 [ACY-957]",
    "study system": "GM16513 cells",
    "% PI+ cells": "1%"
  },
  {
    "compound": "O=C(/C=C/c1ccc(O)c(O)c1)c1ccc(O[C@@H]2O[C@H](CO)[C@@H](O)[C@H](O)[C@H]2O)c(O)c1O [Marein]",
    "study system": "GM16513 cells",
    "% PI+ cells": "1%"
  },
  {
    "compound": "CCN(CC)Cc1ccc2cc(COC(=O)Nc3ccc(C(=O)NO)cc3)ccc2c1 [Givinostat (hydrochloride monohydrate), Givinostat]",
    "study system": "GM16513 cells",
    "% PI+ cells": "6%"
  },
  {
    "compound": "Cn1cc(CNCC2CCN(c3ncc(C(=O)NO)cn3)CC2)c2ccccc21 [Quisinostat]",
    "study system": "GM16513 cells",
    "% PI+ cells": "17%"
  },
  {
    "compound": "CCOC(=O)c1cnc(NC2(c3ccccc3)CC2)nc1 [CG347B]",
    "study system": "GM16513 cells",
    "% PI+ cells": "1%"
  }
]
